Data origin, for the record: ChEMBL document CHEMBL1250539

Recorded Ki values for a group of molecules are listed next.
Test: Competitive inhibition of Streptomyces plicatus hexosaminidase
// units = µM; emit number, no label

item.smiles: CC1=N[C@@H]2[C@@H](O)[C@H](O)[C@@H](CO)O[C@@H]2[Se]1
Ki / µM: 170

Here is the next item to consider.
query: Name the recorded Ki of the molecule listed here: CC1=N[C@@H]2[C@@H](O)[C@H](O)[C@@H](CO)O[C@@H]2S1
result: 20
